# Tested on: Tel-cKit/T670I-BaF3
# METHOD_NOTES: Proliferation of Tel-cKit/T670I-BaF3 cells, CCK8 cell viability assay
# Type: cell-based
# RUN_PARAMETERS: Mus musculus, 72 hours, stably expressing cKIT/T670I
Please use the following GI50 ranges when assigning a class: b0 = under 1 µM, b1 = from 1 µM up to 5 µM, b2 = 5 µM and over

Using the reported GI50, which band applies to Cc1ccc(NC(=O)Nc2ccc(Oc3cc(N[C@H](C)CNC(=O)OC(C)(C)C)ncn3)cc2)cc1C(F)(F)F [Example 112] ?
b0

---
Using the reported GI50, which band applies to CC(=O)Nc1cc(Oc2ccc(NC(=O)Cc3cc(F)cc(F)c3)cc2)ncn1 [Example 173] ?
b2

Do the same for Cc1ccc(NC(=O)Nc2ccc(Oc3cc(N[C@@H](C)C(=O)O)ncn3)cc2)cc1C(F)(F)F [Example 126] please
b1

Do the same for CC(=O)Nc1cc(Oc2ccc(NC(=O)Cc3ccccc3C)cc2)ncn1 [Example 161] please
b2

Do the same for CC(=O)Nc1cc(Oc2ccc(NC(=O)Cc3ccccc3Cl)cc2)ncn1 [Example 26] please
b2

Do the same for Cc1ccc(NC(=O)Nc2ccc(Oc3cc(N4CCN(C(=O)OC(C)(C)C)C[C@H]4CO)ncn3)cc2)cc1C(F)(F)F [Example 110] please
b2

Do the same for CC(=O)Nc1cc(Oc2ccc(NC(=O)Cc3ccc(C(C)(C)C)cc3)cc2)ncn1 [Example 65] please
b1

Do the same for Cc1ccc(NC(=O)Nc2ccc(Oc3cc(NCC(N)=O)ncn3)cc2)cc1C(F)(F)F [Example 142] please
b1

Do the same for COc1cc(CC(=O)Nc2ccc(Oc3cc(NC(C)=O)ncn3)cc2)ccc1O [Example 11] please
b2
